Tested on: blood coagulation (prothrombin time)
Experiment: Prothrombin time test
Type: biochemical
Conditions: 100 μM; without conjugate 11.5
Peptide text beside a SMILES is read from it. * marks the point of attachment. Tos = Cc1ccc(S(=O)(=O)*)cc1; CH2Cl = ClC*
Here, each record is paired with measured PT data.
Write the value in s as a bare number.

Here's what some known entries look like.
| Compound | Tested target | Output unit | PT |
| --- | --- | --- | --- |
| Cc1ccc(S(=O)(=O)N[C@@H](CC(C)C)C(=O)N[C@@H](CC(=O)O)C(=O)N2CCC[C@H]2C(=O)N[C@@H](CCCNC(=N)N)C(=O)CCl)cc1 [4AA, tosyl-LDPR-CK] (Tos-LDPR-CH2Cl) | blood coagulation (prothrombin time) | s | 12.7 |
| Cc1ccc(S(=O)(=O)N[C@H](C(=O)N[C@@H](CC(C)C)C(=O)N[C@@H](CC(=O)O)C(=O)N2CCC[C@H]2C(=O)N[C@@H](CCCNC(=N)N)C(=O)CCl)[C@@H](C)O)cc1 [5AA, tosyl-TLDPR-CK] (Tos-TLDPR-CH2Cl) | blood coagulation (prothrombin time) | s | 14.5 |
| Cc1ccc(S(=O)(=O)N[C@@H](C)C(=O)N[C@H](C(=O)N[C@@H](CC(C)C)C(=O)N[C@@H](CC(=O)O)C(=O)N2CCC[C@H]2C(=O)N[C@@H](CCCNC(=N)N)C(=O)CCl)[C@@H](C)O)cc1 [6AA, tosyl-ATLDPR-CK] (Tos-ATLDPR-CH2Cl) | blood coagulation (prothrombin time) | s | 16.5 |

Ask | Fill in the recorded PT for this compound, with blood coagulation (prothrombin time) as test system: Cc1ccc(S(=O)(=O)N[C@@H](CC(N)=O)C(=O)N[C@@H](C)C(=O)N[C@H](C(=O)N[C@@H](CC(C)C)C(=O)N[C@@H](CC(=O)O)C(=O)N2CCC[C@H]2C(=O)N[C@@H](CCCNC(=N)N)C(=O)CCl)[C@@H](C)O)cc1 [7AA, tosyl-NATLDPR-CK] (Tos-NATLDPR-CH2Cl)
Reply | 17.4

* * *

Tested on: thrombin
Assay: Thrombin time test
Type: biochemical
Conditions: 100 μM; without conjugate 13.4
Peptide text beside a SMILES is read from it. * marks the point of attachment. Tos = Cc1ccc(S(=O)(=O)*)cc1; CH2Cl = ClC*
Measurement label: TT

| Compound | TT |
| --- | --- |
| Cc1ccc(S(=O)(=O)N[C@@H](CC(N)=O)C(=O)N[C@@H](C)C(=O)N[C@H](C(=O)N[C@@H](CC(C)C)C(=O)N[C@@H](CC(=O)O)C(=O)N2CCC[C@H]2C(=O)N[C@@H](CCCNC(=N)N)C(=O)CCl)[C@@H](C)O)cc1 [7AA, tosyl-NATLDPR-CK] (Tos-NATLDPR-CH2Cl) | > 80 s |

Let us move to another entry and its TT.
Ask | If you can, please state the reported TT value of Cc1ccc(S(=O)(=O)N[C@@H](CC(=O)O)C(=O)N2CCC[C@H]2C(=O)N[C@@H](CCCNC(=N)N)C(=O)CCl)cc1 [3AA, tosyl-DPR-CK] (Tos-Asp-Pro-Arg-CH2Cl) .
Reply | > 80 s

* * *

System: blood coagulation (prothrombin time)
Experiment: Prothrombin time test
Type: biochemical
Details: 1 μM; without conjugate 11.5
Peptide text beside a SMILES is read from it. * marks the point of attachment. Tos = Cc1ccc(S(=O)(=O)*)cc1; CH2Cl = ClC*
Measurement label: PT (s)
Write the value in s as a bare number.

Here's what some known entries look like.
| Compound | PT / s |
| --- | --- |
| Cc1ccc(S(=O)(=O)N[C@@H](C)C(=O)N[C@H](C(=O)N[C@@H](CC(C)C)C(=O)N[C@@H](CC(=O)O)C(=O)N2CCC[C@H]2C(=O)N[C@@H](CCCNC(=N)N)C(=O)CCl)[C@@H](C)O)cc1 [6AA, tosyl-ATLDPR-CK] (Tos-ATLDPR-CH2Cl) | 11.4 |
| Cc1ccc(S(=O)(=O)N[C@@H](CC(N)=O)C(=O)N[C@@H](C)C(=O)N[C@H](C(=O)N[C@@H](CC(C)C)C(=O)N[C@@H](CC(=O)O)C(=O)N2CCC[C@H]2C(=O)N[C@@H](CCCNC(=N)N)C(=O)CCl)[C@@H](C)O)cc1 [7AA, tosyl-NATLDPR-CK] (Tos-NATLDPR-CH2Cl) | 11.2 |

Let us move to another entry and its PT.
Ask | If you can, please state the reported PT value of Cc1ccc(S(=O)(=O)N[C@@H](CC(=O)O)C(=O)N2CCC[C@H]2C(=O)N[C@@H](CCCNC(=N)N)C(=O)CCl)cc1 [3AA, tosyl-DPR-CK] (Tos-Asp-Pro-Arg-CH2Cl) .
Reply | 12.3
